Test system: Bj-5ta
measurement.protocol: MTT assay, BJ-5ta non-cancerous fibroblasts
Assay type: cell-based, human
measurement.parameters: non-cancerous dermal fibroblasts, 48 h incubation
Structures can show the parent of a compound that is named as a salt.

compound: COc1cc(NC(=O)COc2ccc(/C=C3\SC(=O)N(Cc4cccc5cc6ccccc6nc45)C3=O)cc2)cc(OC)c1 [8b·HCl]
IC50: > 50 µM
--
compound: COc1cc(/C=C2\SC(=O)N(Cc3cccc4cc5ccccc5nc34)C2=O)ccc1OCC(=O)Nc1ccc([N+](=O)[O-])cc1 [13d·HCl]
IC50: > 50 µM
--
compound: COc1cc(NC(=O)COc2ccc(/C=C3\SC(=O)N(Cc4c5ccccc5nc5ccccc45)C3=O)cc2OC)cc(OC)c1 [12b·2HCl]
IC50: 29.6 µM
